experimentalDetails: A qHTS for Small Molecule Inhibitors of Shiga Toxin
conditionLabel: Vero cells, Shiga toxin protein synthesis inhibition reporter; at 38.7 µM
Hit rate of the full screen: of about 290,000 compounds, about 27,000 (9.3%) were called active. Cut-off read from the data, not from the text of the source: active = inhibition mostly above about 28% (no sharp cut-off); inactive = mostly below about 43%. The sample holds actives, similar compounds and a random draw of the others, so the mix is not that of the screen.
Hello, when you answer, please use one of the following outcomes: yes (1) (active), no (0) (inactive)

GET /call?item= Cc1ccc(S/C(=N\S(=O)(=O)c2ccc(Cl)cc2)c2ccccc2)cc1 returns the recorded outcome of this test.
no (0)

Now this one: Cc1ccc(N2CCN(C(=O)c3cccs3)CC2)c(C)c1
no (0)

====

experimentalDetails: A qHTS for Small Molecule Inhibitors of Shiga Toxin
conditionLabel: Vero cells, Shiga toxin protein synthesis inhibition reporter; at 38.7 µM, active compounds read high
Among all 290,000 compounds or so, about 27,000 (9.3%) were called active. The full list was thinned out, with actives kept by preference.
measuredEndpoint: inhibition (%)
API: value field is a number in %; no unit string.

>>> recordedvalue("O=C(NCCCN1CCOCC1)c1cc2c(s1)CCC2")
33
>>> recordedvalue("O=C(Nc1cccc(Cl)c1N1CCOCC1)c1ccc2c(c1)OCCO2")
121
>>> recordedvalue("COc1ccc(C(CNC(=O)c2cc3c(s2)CCCC3)N2CCOCC2)cc1 (stereo unspecified)")
-16.3
>>> recordedvalue("O=C(COC(=O)c1cc2c(s1)CCCC2)NCc1ccccc1Cl")
7.81

Name the reported inhibition value associated with the compound O=C(c1cc2c(s1)CCC2)N1CCN(c2ccccc2)CC1
44.1

And the next one, COC(=O)c1ccc(/C=N/N2C(C)CCCC2C)cc1 (stereo unspecified) ?
66.3

Subsequent entry: CCC1(CC)Cc2ccccc2-c2nc(CCl)[nH]c(=O)c21
-4.46

Then this compound: Cc1cc(NC(=O)CSc2nnc(-c3ccc(Cl)s3)o2)no1
20.2

Moving on to the next compound: CCCC(=O)Nc1ccc(Cl)c(NC(=O)c2ccc(Br)o2)c1
-13.8

Consider next the compound O=C(Nc1sc2c(c1C(=O)O)CCC2)c1ccccc1F in the same way.
15

====

experimentalDetails: A qHTS for Small Molecule Inhibitors of Shiga Toxin
conditionLabel: Vero cells, Shiga toxin protein synthesis inhibition reporter; at 38.7 µM, active compounds read high
Screen size: about 290,000 compounds; about 27,000 (9.3%) were called active. This excerpt belongs to a sample that is enriched for actives.
List of inhibition values.
Output spec: scalar in %, unitless text.

>>> recordedvalue("Cc1nonc1C1CCCN1C(=O)c1cc(COc2cccc(C(F)(F)F)c2)on1 (stereo not given)")
23.7
>>> recordedvalue("Cc1c(C(=O)N2CCOCC2)[nH]c2ccc(OCc3ccccc3)cc12")
5.47

I am curious: what inhibition value has been reported for O=C(c1c(F)cccc1F)N1CCN(c2ncc(Br)cn2)CC1 ?
-6.62

Please do the same for Cc1cc(NC(=O)COC(=O)c2ccc(F)c(S(=O)(=O)N3CCOCC3)c2)no1 as well.
-2.48

Query O=C(c1cc(COc2cccc(C(F)(F)F)c2)on1)N1CCSCC1 next
26.5

====

Listed here: items and their measured inhibition.
experimentalDetails: A qHTS for Small Molecule Inhibitors of Shiga Toxin
conditionLabel: Vero cells, Shiga toxin protein synthesis inhibition reporter; at 38.7 µM, active compounds read high
The whole screen tested about 290,000 compounds, of which about 27,000 (9.3%) were called active. The full list was thinned out, with actives kept by preference.
Expressed in %, but write only the number.

Below are worked cases with known answers.
>>> recordedvalue("CC(=O)Nc1ccc(S(=O)(=O)NC2Cc3ccccc3C2)cc1")
-3.63
>>> recordedvalue("CCOC(=O)c1nc(-c2ccc3c(c2)OCO3)[nH]c1C")
41
>>> recordedvalue("Cc1cc(C(C)(C)C)n2nc(C)c(-c3ccccc3)c2n1")
-4.85

Using the record for Cc1cc(N)n2nc(-c3ccc(C(C)(C)C)cc3)cc2n1 , report its inhibition.
88.7

Lookup O=C(O)c1ccc2c(c1)C(=O)N(c1ccc(/C=C/C(=O)c3ccccc3)cc1)C2=O
70.9

Follow-up entry: CCOC(=O)c1c(C)[nH]c(C(=O)COc2ccc3c(c2)OCO3)c1C
17.2

# repeat for NS(=O)(=O)c1cc(C(=O)NCCOc2ccccc2)c(Cl)cc1Cl
-6.15

Try this molecule too: Cc1c(Br)c([N+](=O)[O-])nn1CC(=O)Nc1sc2c(c1C(=O)OC(C)C)CCC(C)C2 (stereo not given)
-7.24

Repeat for the following molecule: Cc1ccc(C(=O)Nc2cccc3ncccc23)cc1[N+](=O)[O-]
11.7

Please answer likewise for Cc1cccc(N2C(=O)c3ccc(C(=O)Nc4cccc(C(=O)O)c4)cc3C2=O)c1
19

====

experimentalDetails: A qHTS for Small Molecule Inhibitors of Shiga Toxin
conditionLabel: Vero cells, Shiga toxin protein synthesis inhibition reporter; at 38.7 µM, active compounds read high
About 27,000 (9.3%) of roughly 290,000 compounds were called active. Shown is part of a subset that was picked to be rich in actives.
measuredEndpoint: inhibition (%)
Please state the figure in %; there is no need to write the unit.

Worked cases, answers included:
>>> recordedvalue("COc1ccc(CN2CCC(=O)c3ccccc3S2(=O)=O)cc1")
-3.72
>>> recordedvalue("COc1ccc(-c2nc3n(c2Br)CCC3)cc1")
87.2
>>> recordedvalue("C/C=C(/C)C(=O)O[C@@H]1c2cc3c(c4c2[C@@]2(CO4)C(=O)C(OC)=C(OC)C=C2C[C@@H](C)[C@H]1C)OCO3")
-12.4
>>> recordedvalue("O=C(c1ccc(F)cc1)N1CCC(n2nnc3ccccc32)CC1")
111
>>> recordedvalue("CC(=O)c1cccc(S(=O)(=O)N2CCC(n3nnc4cc(F)ccc43)CC2)c1")
7.77
>>> recordedvalue("CN1OC(COC(=O)c2ccc(Cl)cc2)CC1c1ccccc1 (stereo unspecified)")
50.7

Suppose we examine the compound CC(C)(C)c1ccc(OC2=CS(=O)(=O)c3ccccc32)cc1 ; what inhibition value has been reported?
135

====

Catalogue of molecules with associated inhibition
experimentalDetails: A qHTS for Small Molecule Inhibitors of Shiga Toxin
conditionLabel: Vero cells, Shiga toxin protein synthesis inhibition reporter; at 38.7 µM, active compounds read high
About 27,000 (9.3%) of roughly 290,000 compounds were called active. This is one part of a sample in which actives are shown more often than they occur.
Numeric answer only, unit % assumed.

>>> recordedvalue("Cc1occc1C(=O)Nc1cccc(Cn2cccn2)c1")
39.7

Entry COc1cc(SC)ccc1C(=O)Nc1nc(C)cs1 : reported inhibition = ?
-19.5

Request: CCn1c(=S)sc2c(=O)n(CC(=O)Nc3cccc(Br)c3)c(C)nc21
13.8

How about COc1cc(SC)ccc1C(=O)N(Cc1ccccc1)c1ccccc1 ?
-14.7

====

experimentalDetails: A qHTS for Small Molecule Inhibitors of Shiga Toxin
conditionLabel: Vero cells, Shiga toxin protein synthesis inhibition reporter; at 38.7 µM, active compounds read high
Among all 290,000 compounds or so, about 27,000 (9.3%) were called active. This is one part of a sample in which actives are shown more often than they occur.
measuredEndpoint: inhibition (%)
Write the value in % as a bare number.

>>> recordedvalue("CCn1c(=N)c(C(=O)NCCCOC)cc2c(=O)n3cccc(C)c3nc21")
-7.15
>>> recordedvalue("C#CC(CCN1CCCCC1)(OC)c1ccccc1 (stereo unspecified)")
-17.9

What measured inhibition goes with CCN(C(=O)CN1C(=O)/C(=C/c2ccc(F)cc2)SC1=S)C1CCS(=O)(=O)C1 (stereo unspecified) ?
-8.73

Try the molecule Cc1cc(/C=C2\SC(=O)N(C)C2=O)c(C)n1-c1cccc(C(=O)O)c1
3.52

// repeat for CCOCCCNC(=O)c1cc2c(=O)n3ccccc3nc2s1 and report
74.5

Similarly, Cc1cccn2c(=O)c3cc(C(=O)NC4CCCCC4)sc3nc12 ?
-2.1

====

experimentalDetails: A qHTS for Small Molecule Inhibitors of Shiga Toxin
conditionLabel: Vero cells, Shiga toxin protein synthesis inhibition reporter; at 38.7 µM
About 27,000 (9.3%) of roughly 290,000 compounds were called active. Rule as the data show it: active = inhibition mostly above about 28% (no sharp cut-off); inactive = mostly below about 43%. This excerpt belongs to a sample that is enriched for actives.
Respond with a class label; see class 1 (active), class 0 (inactive)

Please review the entries below; each comes with its answer.
>>> label("Cc1noc(NS(=O)(=O)c2ccc(N/C=C/C(=O)c3ccccc3)cc2)c1C")
"class 1"
>>> label("CSCc1nnc(NC(=O)c2ccc(S(=O)(=O)N3CCCCC3C)cc2)o1 (stereo not given)")
"class 0"
>>> label("CCn1c(SCC(=O)Nc2ccc(S(=O)(=O)Nc3onc(C)c3C)cc2)nnc1-c1ccccc1")
"class 0"
>>> label("COCCOC(=O)C1=C(C)NC(=O)NC1c1cc2c(cc1Br)OCO2 (stereo not given)")
"class 0"
>>> label("O=C(/C=C/Nc1ccc(S(=O)(=O)Nc2cnc3ccccc3n2)cc1)c1cccnc1")
"class 1"
>>> label("O=C(NNS(=O)(=O)c1ccc(F)cc1)c1ccc([N+](=O)[O-])cc1Cl")
"class 0"
>>> label("Cc1ccc(C(=O)/C=C/Nc2ccc(S(=O)(=O)Nc3onc(C)c3C)cc2)cc1")
"class 1"
>>> label("Cc1cccc(C)c1NC(=O)CN1C(=O)C(C)Oc2ccccc21 (stereo not given)")
"class 0"

Call for entry Cc1noc(NS(=O)(=O)c2ccc(NC(=O)c3oc4ccc(F)cc4c3C)cc2)c1C :
class 0

Now the same for Cc1noc(NS(=O)(=O)c2ccc(NC(=O)C34CCC(CC3)C4)cc2)c1C
class 0

The measurements presented in this section are drawn from PubChem BioAssay AID2315.
